test system: MS2 coat protein; experiment: apparent KD of MS2 coat protein; higher = weaker reporter binding; conditions: Eterna round: R107; input ligand: arginine 13.2 mM
Okay, here is how we bin by apparent KD of MS2 coat protein: band A: < 30 nM; band B: ≥ 30 nM and < 80 nM; band C: ≥ 80 nM

Field: example entries. Status: answers known.
Inquiry: Input UUGGGUUUGUGAAGGAGCGGGAAAGAUAUAUAUUUAAUCCUAACAUGAGGAUCACCCAUGUCCCAGGUAGGUCGCGCGGGUUUGG [12.O] ; output its category
Reply text: band B

Inquiry: Input UUUACGGGAAACCGAACUAAACAAAGGGAAGGAGCGCCAAACAAGGCAGGUAGGUCGCCCACAUGAGGAUCACCCAUGUGUUGGG [Exclusion Arginine A GF 25] ; output its category
Reply text: band B

Inquiry: Input ACGGGCAUGGCGGCCGCCACUGGUUGGCGUGCGGAUGAGGGAACAUGAGGAUCACCCAUGUUGGUUAGGACCGGGCUGGCGUCGA [kkymullin] ; output its category
Reply text: band A

Inquiry: Input GGGCCCGGCCGAAAGGCCGGGCCCGCUGAAGGAGCGGGAAAUAACCCAGGUAGGUCGCAGAGAUCCACAUGAGGAUCACCCAUGU [#26 Exclusion - Arginine A] ; output its category
Reply text: band B

Inquiry: Input GGAUAGGACAGAAGGAGCGACAUGGCAGAAACUGCAAUCCUCCUACACGAGGAUCACCCGUGUCAGGUAGGUCGCUGUCCUAUCG [ArgXB 12 #Zipper #MS2Left #StaticStem #Blueprint] ; output its category
Reply text: band A

Next:
Inquiry: Input AUUCAUGAAAACAUGACAUGAGGAUCACUCCGAGGACCGGUACGGCCGCCACUCGCGAGGAGGCACAUGAGGAUCACCCAUGUUA [SS Tryp A #2] ; output its category
Reply text: band B

Inquiry: Input CCUCAAUAGACGGCCGCCACUGAAACAUGCGGAUACAUGAGGAUCACCCAUGUGGGUGUGUUACGCAGGACCGGGUCAAGACCCG [#12 Same State - Tryptophan B] ; output its category
Reply text: band C

* * *

system: MS2 coat protein; test: apparent KD of MS2 coat protein; designed switch direction (-1 OFF switch, 1 ON switch): -1; higher = weaker reporter binding; details: input ligand: none
Metric: apparent KD of MS2 coat protein (µM)
State just the number; it will be interpreted in µM.

Recorded results for 3 sequences are shown here.
Inquiry: Recall the recorded apparent KD of MS2 coat protein for CUCAGUGGUGAGGAUAUGCGCGCCCAAUGGACGGUAGAAGGUACUACAUGAGGAUCACCCAUGUAGCGAAGAUU [Eternabot (L1) Solution 49] (Eterna round: R97, puzzle: Exclusion 6) with MS2 coat protein and state it.
Reply text: 0.0158

Inquiry: Recall the recorded apparent KD of MS2 coat protein for GCACUUGAACAUGAGGAUCACCCAUGUGUUUUUCUUGUUCGGCAGGAUAUCGUCUAGCGCCAGGACGAGAAGGGCCAAUAAAAG [Ratiarveed] (Eterna round: R96, puzzle: Exclusion NG 3) with MS2 coat protein and state it.
Reply text: 0.141

Inquiry: Recall the recorded apparent KD of MS2 coat protein for GUUUCGAGACGGAGAUCCGACAUGAGGAUCACCCAUGUCUCGUAAGCUUUUUGCUCGUCUUAUACUCCUCUGUUCUC [Elimod 49 - Jieux - Sensor, turn-off variant 1] (Eterna round: R97, puzzle: Sensor, turn-off variant 1) with MS2 coat protein and state it.
Reply text: 0.0272

Next:
Inquiry: Recall the recorded apparent KD of MS2 coat protein for AGCAGCCAAUCAGGAUAUACUUUCAGGUGAAGCGUCGCGGGCGAUAACAUGAGGAUCACCCAUGUGUAGAAGGGAUGCGCAAAC [Eternabot solution 39] (Eterna round: R96, puzzle: Exclusion NG 2) with MS2 coat protein and state it.
Reply text: 0.0412

Inquiry: Recall the recorded apparent KD of MS2 coat protein for UGAGUGCUGCGAGGAUAUACAUGAGGAUCACCCAUGUAUACCUGUGAGGCUUUGCCUCACAGGUAGUAGAAGGCGCAGUACUCU [Mat - Exclusion NG 2 - Mod of JL - D44] (Eterna round: R96, puzzle: Exclusion NG 2) with MS2 coat protein and state it.
Reply text: 0.0128

Inquiry: Recall the recorded apparent KD of MS2 coat protein for CAGCUGAAAGUGAGGAUAUCUAGAGCGAUAGCUCUAGAGAAGGCACAUGAGGAUCACCCAUGUGAUCACAGCUG [BmEx4/7-A4] (Eterna round: R97, puzzle: Brourd's mod of Exclusion 4) with MS2 coat protein and state it.
Reply text: 0.249
